Value source: patent US12447167B2

- procedure_text: Disposition after single oral dose, humans (normal subjects)
- Type: in vivo, human
- experimental_parameters: human, blood; normal subjects, 0.3 mg/body oral
experimental_endpoint: AUC(0-t) (ng·h/mL)
Answers are plain numbers, in ng·h/mL.

Data request: Tell me its AUC(0-t) given CCCCCCCCCCCCCCCCCCCCCCCC(=O)NC(COC1OC(CO)C(O)C(O)C1O)[C@H](O)C(O)CCCCC (stereo in doubt) [compound 31] as the entry.
Data returned: 11.7

---

- procedure_text: Disposition after single oral dose, cynomolgus monkey
- Format: in vivo
- experimental_parameters: plasma; male cynomolgus monkey, 10 mg/kg single oral, 14C-labeled, fasting
- Experimental: After a single dose of compound 31 labeled with ^14C was orally administered at a predetermined dose to each of a male mouse, a male rat, and a male cynomolgus monkey under fasting conditions, the concentration in blood was measured after a lapse of a given time, and parameters such as maximum plasma concentration Cmax, time Tmax to reach the maximum plasma concentration, half-life t1/2, area under curve AUC0-∞, mean retention time MRT0-∞, and bioavailability BA were calculated. […]
experimental_endpoint: Cmax (ng/mL)
Numbers only, in ng/mL.

Data request: In one line, give reported Cmax of the entry CCCCCCCCCCCCCCCCCCCCCCCC(=O)NC(COC1OC(CO)C(O)C(O)C1O)[C@H](O)C(O)CCCCC (stereo in doubt) .
Data returned: 39.4

---

- procedure_text: Disposition after single oral dose, humans (normal subjects)
- Type: in vivo, human
- experimental_parameters: human, blood; normal subjects, 30 mg/body oral
experimental_endpoint: half-life (h)
One number for each entry, in h.

Data request: Supply measured half-life of CCCCCCCCCCCCCCCCCCCCCCCC(=O)NC(COC1OC(CO)C(O)C(O)C1O)[C@H](O)C(O)CCCCC (stereo in doubt) in your reply.
Data returned: 53.6

---

- procedure_text: Disposition after single oral dose, MS patients
- Assay type: in vivo, human
- experimental_parameters: human, blood, 0.3 mg/body single oral
experimental_endpoint: Tmax (h)
One number for each entry, in h.

Data request: Give the value of Tmax reported for the following: CCCCCCCCCCCCCCCCCCCCCCCC(=O)NC(COC1OC(CO)C(O)C(O)C1O)[C@H](O)C(O)CCCCC (stereo in doubt) [compound 31]
Data returned: 18

---

- procedure_text: Disposition after single oral dose, cynomolgus monkey
- Format: in vivo
- experimental_parameters: blood; male cynomolgus monkey, 10 mg/kg single oral, 14C-labeled, fasting
experimental_endpoint: AUC(0-t) (ng·h/mL)
One number for each entry, in ng·h/mL.

Data request: Give the reported AUC(0-t) for this compound. CCCCCCCCCCCCCCCCCCCCCCCC(=O)NC(COC1OC(CO)C(O)C(O)C1O)[C@H](O)C(O)CCCCC (stereo in doubt) [compound 31]
Data returned: 2260

---

- procedure_text: Disposition after single oral dose, humans (normal subjects)
- Assay type: in vivo, human
- experimental_parameters: human, blood; normal subjects, 0.3 mg/body oral
experimental_endpoint: half-life (h)
Numbers only, in h.

Data request: Specify measured half-life for CCCCCCCCCCCCCCCCCCCCCCCC(=O)NC(COC1OC(CO)C(O)C(O)C1O)[C@H](O)C(O)CCCCC (stereo in doubt) [compound 31] .
Data returned: 21.4
